The reported numbers originate from patent US20230150960A1.

MEASUREMENT_NOTES: Solubility of BSA-containing formulations (post vortexing, 30 min and overnight at 18° C.)
Type: physicochemical
RUN_CONDITIONS: BSA-containing formulation, 18 °C, aqueous with cosolvent or surfactant or cyclodextrin, compound 2 mg/mL; BSA 40 mg/mL; overnight incubation at 18° C.; read-out: Solubility of BSA-containing formulations after overnight incubation at 18° C., 40 mg/mL
OBSERVATION_TYPE: solubility

## Task Given the compound CCN1/C(=C/C(C)=C/c2sc3ccccc3[n+]2CC)Sc2ccccc21 [JAC-B2.5] , what is its reported solubility?
## Result < 2000 µg/mL

## Task Given the compound CCN1/C(=C/C=C/c2oc3ccccc3[n+]2CC)Oc2ccccc21 [JAC-R1, 3′,3′-Diethyloxacarbocyanine iodide] , what is its reported solubility?
## Result < 2000 µg/mL
